Reported ALT is given for each of the following substances.
# Method notes: Liver function, ALT, AST, bilirubin in cynomolgus monkeys (Example 46)
# Type: in vivo
# Condition info: Day 55; plasma
Strand notation (5' to 3'): a small letter for the sugar, then the base; units joined by * are phosphorothioate-linked, units joined directly phosphodiester-linked; [ ] holds rarer units or linkages, { } end groups; capitals alone tell only the bases. e = 2'-O-(2-methoxyethyl) (MOE); [5mC] = 5-methylcytosine; d = 2'-deoxy (DNA)
Your answer should be a plain number; it is taken to be in IU/L.

These solved cases illustrate the format of a correct answer.
{"Substance": "ISIS 449707: 3-8-3, 4-8-4, 2-10-2, 3-10-3 or 4-10-4 MOE microwalk gapmer (Table 46) (antisense e[5mC]*eA*e[5mC]*eA*dG*dT*dT*dT*d[5mC]*dT*dG*dG*e[5mC]*eA*eG*eG)", "ALT / IU/L": 63}
{"Substance": "ISIS 449708: 3-8-3, 4-8-4, 2-10-2, 3-10-3 or 4-10-4 MOE microwalk gapmer (Table 46) (antisense eA*e[5mC]*eA*dG*dT*dT*dT*d[5mC]*dT*dG*dG*e[5mC]*eA*eG)", "ALT / IU/L": 46}

Could you tell me which ALT is on file for ISIS 416850: MOE gapmer, nucleobases 1275 to 1318 of SEQ ID NO: 1 (Table 8) (antisense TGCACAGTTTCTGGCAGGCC; MOE gapmer, wing and gap sizes not given here) ?
55

What does the data say about its ALT? Entry: ISIS 449711: 3-8-3, 4-8-4, 2-10-2, 3-10-3 or 4-10-4 MOE microwalk gapmer (Table 46) (antisense eA*e[5mC]*dA*dG*dT*dT*dT*d[5mC]*dT*dG*dG*d[5mC]*eA*eG)
54
